experiment: chemical genetic growth profiling, strain panel (AID 1159580);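 further: tested at 20 µM; growth read once vehicle control cultures reached saturation at 30 °C; 1 = growth at the plate median or of vehicle wells; lower values mean less growth of the strain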; conditions: S. cerevisiae deletion strains, growth OD, locus YMR125W, strain sto1, active compounds read low
Hit rate of the full screen: of about 5,500 compounds, about 2,000 (36%) were called active. Another 18% or so got no clear call; they are omitted. The list shows a part of the results.
Reported normalized growth is given for each of the following compounds.
Please reply with the number alone, leaving off any unit.

{"compound": "COc1ccnc(CS(=O)c2nc3ccc(OC(F)F)cc3[nH]2)c1OC (centres undefined)", "normalized growth": 1.02}

Respond only with normalized growth recorded for CC(=O)OC/C=C(\C)CC/C=C(\C)CC/C=C(\C)CC/C=C(\C)CC/C=C(\C)CC/C=C(\C)CC/C=C(\C)CC/C=C(\C)CCC=C(C)C
0.939

Respond only with normalized growth recorded for CCC(C)C(=O)c1c(O)c(C)c2oc3c(C)c(O)c(C(=O)C(C)CC)c(O)c3c2c1O (centres undefined)
0.969

Respond only with normalized growth recorded for Nc1nc(F)nc2c1ncn2[C@@H]1O[C@H](COP(=O)(O)O)[C@@H](O)[C@@H]1O
0.981

###

experiment: chemical genetic growth profiling, strain panel (AID 1159580); details: S. cerevisiae deletion strains, growth OD, locus YNL067W, strain RPL9B, active compounds read low
About 2,000 (36%) of roughly 5,500 compounds were called active. About 18% were inconclusive and are not listed. Some of the results follow.
Reported normalized growth is given for each of the following compounds.
Please reply with the number alone, leaving off any unit.

Below, 5 compounds whose answers are already recorded.
{"compound": "NC1(C(=O)O)CC1", "observed-measurement": 1.02}
{"compound": "COc1ccc(-c2cc(=O)c3c(OC)cc(OC)cc3o2)cc1", "observed-measurement": 0.962}
{"compound": "COc1cc(OC)c2c(=O)cc(-c3ccccc3)oc2c1", "observed-measurement": 0.889}
{"compound": "CN(C)CCC(c1ccccc1)c1ccccn1 (configuration not stated)", "observed-measurement": 0.996}
{"compound": "NC1(C(=O)O)CCC1", "observed-measurement": 0.952}

Respond only with normalized growth recorded for NCCCNCCSP(=O)(O)O
0.984

Respond only with normalized growth recorded for CN1CCC[C@@H]1CCO[C@](C)(c1ccccc1)c1ccc(Cl)cc1
0.971

###

assay: chemical genetic growth profiling, strain panel (AID 1159580); conditions: S. cerevisiae deletion strains, growth OD, locus YOR083W, strain WHI5, active compounds read low
Among all 5,500 compounds or so, about 2,000 (36%) were called active. Not shown: some 18% with an inconclusive outcome. The list shows a part of the results.
Reported normalized growth is given for each of the following compounds.
Please reply with the number alone, leaving off any unit.

Below, 2 compounds whose answers are already recorded.
{"compound": "COP(=S)(OC)Oc1ccc(Sc2ccc(OP(=S)(OC)OC)cc2)cc1", "normalized growth": 1.01}
{"compound": "CCN1C[C@@]2(COC)C3[C@@H](OC)[C@H]4[C@@H]1[C@]3(C(OC)C[C@H]2O)C1C[C@@]2(O)[C@H](OC(=O)c3ccccc3)C1[C@]4(OC(C)=O)[C@@H](O)[C@@H]2OC (stereo not given in full)", "normalized growth": 0.968}

Respond only with normalized growth recorded for O=C(O)C1CCCNC1 (stereo not given)
1.01

Respond only with normalized growth recorded for Clc1ccccc1CN1CCc2sccc2C1
0.982

Respond only with normalized growth recorded for COc1cc2c(cc1OC)C1(O)C(=O)c3ccc(O)c(C(=O)O)c3OC1CO2 (stereo not given)
0.999

Respond only with normalized growth recorded for O=c1[nH]c(=O)n(C2C[C@H](O)[C@@H](CO)O2)cc1C(F)(F)F (stereo not given in full)
0.917

Respond only with normalized growth recorded for COc1ccnc(CS(=O)c2nc3ccc(OC(F)F)cc3[nH]2)c1OC (stereo not given)
0.995

Respond only with normalized growth recorded for COC(=O)[C@H](c1ccccc1Cl)N1CCc2sccc2C1
0.981

Respond only with normalized growth recorded for COc1ccc2c(c1)OCC(Cc1ccc(OC)c(O)c1)C2=O (stereo not given)
0.911

Respond only with normalized growth recorded for COc1ccc2c(c1)OCC(Cc1ccc(OC)c(OC)c1)C2=O (stereo not given)
0.936

###

assay: chemical genetic growth profiling, strain panel (AID 1159580);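 further: tested at 20 µM; growth read once vehicle control cultures reached saturation at 30 °C; 1 = growth at the plate median or of vehicle wells; lower values mean less growth of the strain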; conditions: S. cerevisiae deletion strains, growth OD, locus YEL037C, strain rad23
The campaign covered roughly 5,500 compounds. About 2,000 (36%) were called active. About 18% were inconclusive and are not listed. No stated cut-off is given here; in the data, active means normalized growth mostly below about 0.91 (no sharp cut-off); inconclusive means no clear call, values can overlap the other calls; inactive means mostly above about 0.92. The list shows a part of the results.
The reply should be one of these categories: t = active, f = inactive

A selection of reference data follows.
{"compound": "CC(=O)C1CC[C@H]2C3CC[C@H]4C[C@H](O)CC[C@]4(C)C3CC[C@]12C (some centres undefined)", "class-name": "f"}
{"compound": "Clc1ccc(COC(Cn2ccnc2)c2ccc(Cl)cc2Cl)c(Cl)c1 (centres undefined)", "class-name": "t"}
{"compound": "COc1cc(C)c2c(=O)cc(-c3ccccc3)oc2c1", "class-name": "f"}
{"compound": "O=C(O)[C@@H](S)[C@@H](S)C(=O)O", "class-name": "f"}
{"compound": "CN(C/C=C/C#CC(C)(C)C)Cc1cccc2ccccc12", "class-name": "t"}

Outcome? CC(C)(S)[C@@H](N)C(=O)O
f

Outcome? COP(=S)(OC)Oc1ccc([N+](=O)[O-])cc1
f

Outcome? CC1(C)N([O-])[N+](=O)C1(C)Br (centres undefined)
f

Outcome? CCC(C)C(=O)c1c(O)c(C)c2oc3c(C)c(O)c(C(=O)C(C)CC)c(O)c3c2c1O (centres undefined)
f

Outcome? COC(=O)[C@@H]1OC(=O)C2OC23[C@@]1(C)CCC1[C@]2(C)C(C[C@@H](O)[C@]13C)C(C)(C)[C@H](OC(C)=O)C[C@@H]2OC(C)=O (some centres undefined)
f

Outcome? O=C1CCCN1CC#CCN1CCCC1
f

Outcome? c1ccc2c(CC3=NCCN3)cccc2c1
f

###

Reported normalized growth is given for each of the following compounds.
assay: chemical genetic growth profiling, strain panel (AID 1159580);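 further: tested at 20 µM; growth read once vehicle control cultures reached saturation at 30 °C; 1 = growth at the plate median or of vehicle wells; lower values mean less growth of the strain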; details: S. cerevisiae deletion strains, growth OD, locus YJL134W, strain LCB3, active compounds read low
Among all 5,500 compounds or so, about 2,000 (36%) were called active. About 18% were inconclusive and are not listed. The list shows a part of the results.

Below, 10 compounds whose answers are already recorded.
{"compound": "O=C(O)COc1ccc(Cl)cc1Cl", "observed-measurement": "1 (inactive)"}
{"compound": "O=C1CCCCC/C=C/CCCCCCCCO1", "observed-measurement": "1 (inactive)"}
{"compound": "C[C@]12CCC3C(CC[C@H]4C[C@H](O)CC[C@]34C)C1CC[C@@H]2O (stereo partly specified)", "observed-measurement": "1.01 (inactive)"}
{"compound": "Fc1ccc([C@@H]2CCNC[C@H]2COc2ccc3c(c2)OCO3)cc1", "observed-measurement": "1.01 (inactive)"}
{"compound": "C[C@]12CCC3c4ccc(OC(=O)c5ccccc5)cc4CCC3C1CCC2=O (stereo partly specified)", "observed-measurement": "0.987 (inactive)"}
{"compound": "CC12CCC3C(=CCc4cc(O)ccc43)C1CCC2=O (stereo unspecified)", "observed-measurement": "0.988 (inactive)"}
{"compound": "COc1cc(OC)c2c(=O)cc(-c3ccccc3)oc2c1", "observed-measurement": "0.948 (inactive)"}
{"compound": "O=NN(CCCl)C(=O)NCCCl", "observed-measurement": "0.997 (inactive)"}
{"compound": "CCCNC(=O)NS(=O)(=O)c1ccc(Cl)cc1", "observed-measurement": "0.996 (inactive)"}
{"compound": "CCC(=O)OC1[C@@H]2CC3=C4CC(=O)O[C@@H](c5ccoc5)[C@]4(C)CCC3[C@@](C)(C2=O)[C@@H](CC(=O)OC)C1(C)C (stereo partly specified)", "observed-measurement": "0.998 (inactive)"}

Continue with the next compound.
Respond only with normalized growth recorded for COC(=O)[C@@H]1OC(=O)C2OC23[C@@]1(C)CCC1[C@@]2(C)CCC(=O)C(C)(C)C2C[C@@H](OC(C)=O)[C@]13C (stereo partly specified)
1.01 (inactive)

###

assay: chemical genetic growth profiling, strain panel (AID 1159580);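 further: tested at 20 µM; growth read once vehicle control cultures reached saturation at 30 °C; 1 = growth at the plate median or of vehicle wells; lower values mean less growth of the strain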; settings: S. cerevisiae deletion strains, growth OD, locus YNL322C, strain KRE1 (second series)
The campaign covered roughly 5,500 compounds. About 2,000 (36%) were called active. Inconclusive results (about 18%) are left out. Cut-off read from the data, not from the text of the source: active = normalized growth mostly below about 0.91 (no sharp cut-off); inconclusive = no clear call, values can overlap the other calls; inactive = mostly above about 0.92. The list shows a part of the results.
The reply should be one of these categories: active, inactive

{"compound": "CCCNC(=O)NS(=O)(=O)c1ccc(Cl)cc1", "class-name": "inactive"}

Outcome? CC(=O)O[C@@H]1CC2C(C)(C)[C@H](O)CC[C@]2(C)C2CC[C@@]3(C)[C@H](c4ccoc4)OC(=O)C4OC43[C@@]21C (some centres undefined)
inactive

Outcome? NC(C(=O)O)C(O)C(=O)O (centres undefined)
inactive

Outcome? O=C(O)C(O)C(O)C(=O)O (centres undefined)
inactive
